target: NR1A /2B (Rattus norvegicus, UniProt P35439+Q00960); assay: Electrophysiological assay at NMDA receptor subunits NR1A/2B expressed in Xenopus oocytes; settings: rat clones in Xenopus oocytes, currents activated by glutamate (100 μM) and glycine (1-100 μM)
Sequence (Q00960 27-1482, other chains not shown): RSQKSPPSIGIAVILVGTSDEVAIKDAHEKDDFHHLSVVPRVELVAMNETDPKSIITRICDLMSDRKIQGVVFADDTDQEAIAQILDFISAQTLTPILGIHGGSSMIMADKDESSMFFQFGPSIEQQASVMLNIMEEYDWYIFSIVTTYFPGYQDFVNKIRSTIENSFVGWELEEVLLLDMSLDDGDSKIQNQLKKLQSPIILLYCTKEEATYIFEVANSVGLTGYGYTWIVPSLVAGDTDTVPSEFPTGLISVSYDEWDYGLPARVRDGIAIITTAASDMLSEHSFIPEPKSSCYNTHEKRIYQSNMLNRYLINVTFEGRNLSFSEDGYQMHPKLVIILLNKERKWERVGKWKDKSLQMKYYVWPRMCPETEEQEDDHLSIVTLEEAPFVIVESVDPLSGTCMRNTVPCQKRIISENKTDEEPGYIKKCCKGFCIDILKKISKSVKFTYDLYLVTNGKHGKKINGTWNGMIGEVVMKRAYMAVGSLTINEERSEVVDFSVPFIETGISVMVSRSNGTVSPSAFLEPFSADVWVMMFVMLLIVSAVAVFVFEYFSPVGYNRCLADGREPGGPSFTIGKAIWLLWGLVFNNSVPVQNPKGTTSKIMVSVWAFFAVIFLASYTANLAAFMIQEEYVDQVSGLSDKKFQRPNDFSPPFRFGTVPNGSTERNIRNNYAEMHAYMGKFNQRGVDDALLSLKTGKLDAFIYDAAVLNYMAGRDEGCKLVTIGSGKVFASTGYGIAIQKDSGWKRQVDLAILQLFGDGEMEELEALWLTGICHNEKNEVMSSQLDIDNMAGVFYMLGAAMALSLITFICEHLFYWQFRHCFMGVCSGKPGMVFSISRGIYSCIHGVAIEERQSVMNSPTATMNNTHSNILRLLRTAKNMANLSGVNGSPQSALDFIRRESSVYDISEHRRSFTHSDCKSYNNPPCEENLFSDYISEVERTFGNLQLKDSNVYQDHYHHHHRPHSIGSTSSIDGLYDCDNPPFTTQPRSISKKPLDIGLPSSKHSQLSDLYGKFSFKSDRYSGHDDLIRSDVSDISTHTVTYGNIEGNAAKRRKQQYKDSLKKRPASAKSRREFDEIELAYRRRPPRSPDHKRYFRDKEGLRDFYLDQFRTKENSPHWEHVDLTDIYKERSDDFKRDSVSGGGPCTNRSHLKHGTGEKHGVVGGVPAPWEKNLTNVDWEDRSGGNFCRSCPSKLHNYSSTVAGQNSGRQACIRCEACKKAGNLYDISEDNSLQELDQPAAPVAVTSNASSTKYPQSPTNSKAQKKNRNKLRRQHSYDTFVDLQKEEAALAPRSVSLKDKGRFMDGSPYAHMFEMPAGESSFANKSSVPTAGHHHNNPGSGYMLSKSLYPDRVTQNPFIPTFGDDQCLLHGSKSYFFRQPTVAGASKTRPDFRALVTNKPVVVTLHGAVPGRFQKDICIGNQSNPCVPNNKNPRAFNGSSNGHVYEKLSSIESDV
pIC50: −log10 of the molar value.
outcomeMeasure: pIC50

                                   compound  outcomemeasure  assayresult
0  COc1ccc(CC2CCN(CC[S+]([O-])c3ccc4[nH]c(=O)oc4c3)CC2)cc1 (stereo not shown)           pIC50         7.00
1  O=c1[nH]c2ccc([S+]([O-])CCN3CCC(Cc4ccc(F)cc4)CC3)cc2o1 (single isomer, unassigned; (-)) [Example 20]           pIC50         7.52
2  O=c1[nH]c2ccc([S+]([O-])CCN3CCC(Cc4ccccc4)CC3)cc2o1 (stereo not shown)           pIC50         7.52
3  O=C(c1ccccc1)C1CCN(CC[S+]([O-])c2ccc3[nH]c(=O)oc3c2)CC1 (stereo not shown)           pIC50         6.47
